assay: Oral bioavailability in male mouse at 2 mg/kg administered as single dose measured after 4 hrs; type: ADME, organism-based; settings: in vivo
Endpoint: bioavailability (%)

CC(C)(N)C(=O)N[C@H](COCc1ccccc1)C(=O)N1CCC2=NN(C3CC3)C(=O)[C@]2(Cc2ccccc2)C1	33.9

* * *

experiment: Metabolic stability in monkey liver microsome assessed as hepatic clearance at 1 uM measured upto 60 mins in presence of NADPH by LC-MS/MS analysis; format: ADME, Macaca mulatta; settings: rhesus monkey, liver microsomes, read-out: CLH
Endpoint: CLint scaled at 1 µM (mL/min/kg)

CC(C)(N)C(=O)N[C@H](COCc1ccccc1)C(=O)N1CCC2=NN(C3CC3)C(=O)[C@]2(Cc2ccccc2)C1	541

* * *

assay: Clearance in male mouse plasma at 1 mg/kg, iv administered as single dose measured after 4 hrs; type: ADME, organism-based
Endpoint: clearance

CC(C)(N)C(=O)N[C@H](COCc1ccccc1)C(=O)N1CCC2=NN(C3CC3)C(=O)[C@]2(Cc2ccccc2)C1	124 mL/min/kg

* * *

assay: Plasma protein binding in rat assessed as unbound fraction measured after 6 hrs by dialysis method; format: ADME, cell-free
Endpoint: fraction unbound at 6 h

CC(C)(N)C(=O)N[C@H](COCc1ccccc1)C(=O)N1CCC2=NN(C3CC3)C(=O)[C@]2(Cc2ccccc2)C1	0.673

* * *

Known clearance of a selection of compounds
assay: Clearance in male Sprague-Dawley rat plasma at 1 mg/kg, iv administered as single dose measured after 4 hrs; type: ADME, organism-based
Endpoint: clearance (mL/min/kg)

CC(C)(N)C(=O)N[C@H](COCc1ccccc1)C(=O)N1CCC2=NN(C3CC3)C(=O)[C@]2(Cc2ccccc2)C1	28.9
CC(C)(N)C(=O)N[C@H](COCc1ccccc1)C(=O)N1CCC2=NOC(=O)[C@]2(Cc2ccccc2)C1	169
CC(C)(N)C(=O)N[C@H](COCc1ccccc1)C(=O)N1CCC2=NN(C3CCC3)C(=O)[C@]2(Cc2ccccc2)C1	50.5
CC(C)(N)C(=O)N[C@H](COCc1ccccc1)C(=O)N1CCC2=NN(C(F)(F)F)C(=O)[C@]2(Cc2ccccc2)C1	70.9
CC(C)(N)C(=O)N[C@H](COCc1ccccc1)C(=O)N1CCC2=NN(C3CC3)C(=O)[C@]2(Cc2ccccn2)C1	48

* * *

target: Voltage-gated inwardly rectifying potassium channel KCNH2 (Homo sapiens, UniProt Q12809); assay: Inhibition of human ERG expressed in HEK293 cells by patch clamp assay
Sequence (Q12809 whole entry): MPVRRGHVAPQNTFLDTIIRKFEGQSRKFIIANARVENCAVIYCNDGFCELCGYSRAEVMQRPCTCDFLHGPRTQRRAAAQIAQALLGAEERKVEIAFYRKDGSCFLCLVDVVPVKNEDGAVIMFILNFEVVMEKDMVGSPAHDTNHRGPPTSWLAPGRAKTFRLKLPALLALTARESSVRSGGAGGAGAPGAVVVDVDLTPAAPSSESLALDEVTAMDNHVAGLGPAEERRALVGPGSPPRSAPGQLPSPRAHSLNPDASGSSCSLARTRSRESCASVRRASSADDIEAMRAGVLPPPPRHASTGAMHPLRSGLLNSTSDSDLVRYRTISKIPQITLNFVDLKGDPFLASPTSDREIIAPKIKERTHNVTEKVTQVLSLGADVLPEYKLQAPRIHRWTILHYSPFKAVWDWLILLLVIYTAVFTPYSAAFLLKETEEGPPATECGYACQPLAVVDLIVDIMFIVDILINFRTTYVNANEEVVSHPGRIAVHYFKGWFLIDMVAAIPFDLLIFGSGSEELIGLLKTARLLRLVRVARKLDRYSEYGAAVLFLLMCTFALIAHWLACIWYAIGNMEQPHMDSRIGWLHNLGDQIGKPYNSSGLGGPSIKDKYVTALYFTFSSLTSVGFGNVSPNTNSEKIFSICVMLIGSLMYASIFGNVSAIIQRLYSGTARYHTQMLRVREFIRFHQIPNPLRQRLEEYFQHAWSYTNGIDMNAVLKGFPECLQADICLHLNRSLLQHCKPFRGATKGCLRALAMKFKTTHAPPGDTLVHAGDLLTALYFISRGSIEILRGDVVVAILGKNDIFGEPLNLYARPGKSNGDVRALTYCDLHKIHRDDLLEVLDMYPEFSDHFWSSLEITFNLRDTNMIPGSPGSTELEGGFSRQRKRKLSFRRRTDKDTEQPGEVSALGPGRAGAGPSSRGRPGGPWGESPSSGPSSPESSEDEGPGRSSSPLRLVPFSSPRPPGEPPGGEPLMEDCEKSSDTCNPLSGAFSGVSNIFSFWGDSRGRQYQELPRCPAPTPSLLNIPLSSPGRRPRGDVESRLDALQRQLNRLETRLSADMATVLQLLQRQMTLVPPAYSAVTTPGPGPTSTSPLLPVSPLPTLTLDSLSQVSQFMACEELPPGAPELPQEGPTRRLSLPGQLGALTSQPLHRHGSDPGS
pIC50: −log10 of the molar value.
Endpoint: pIC50

CC(C)(N)C(=O)N[C@H](COCc1ccccc1)C(=O)N1CCC2=NN(C3CC3)C(=O)[C@]2(Cc2ccccc2)C1	< 4.52

* * *

test: Metabolic stability in mouse liver microsome assessed as hepatic clearance at 1 uM measured upto 60 mins in presence of NADPH by LC-MS/MS analysis; type: ADME; details: liver microsomes, read-out: CLH
Endpoint: CLint scaled at 1 µM (mL/min/kg)

CC(C)(N)C(=O)N[C@H](COCc1ccccc1)C(=O)N1CCC2=NN(C3CC3)C(=O)[C@]2(Cc2ccccc2)C1	1370

* * *

test: Metabolic stability in monkey liver microsome assessed as half life at 1 uM measured upto 60 mins in presence of NADPH by LC-MS/MS analysis; assay type: ADME, Macaca mulatta; settings: rhesus monkey, liver microsomes
Endpoint: half-life at 1 µM (min)

CC(C)(N)C(=O)N[C@H](COCc1ccccc1)C(=O)N1CCC2=NN(C3CC3)C(=O)[C@]2(Cc2ccccc2)C1	3.1
